Test: Pharmacokinetic study of lorlatinib in mouse serum after oral administration (LC-MS/MS, noncompartmental model)
Format: in vivo, Kun Ming mice
Conditions: Kun Ming, mouse, mice, 10 mg/kg, 24 h after administration

{"columns": ["Smiles Entry", "concentration at 24 h, µg/mL"],
 "data": [
  ["C[C@H]1Oc2cc(cnc2N)-c2c(nn(C)c2C#N)CN(C)C(=O)c2ccc(F)cc21", 0.0209]
]}

###

Assay: Tissue distribution of lorlatinib in mice after oral administration (LC-MS/MS)
Format: in vivo, Kun Ming mice
Conditions: Kun Ming, mouse, 10 mg/kg, 0.5 h, kidney, read-out: concentration in kidney
Observable: concentration at 0.5 h (ng/g)

{"columns": ["Molecule", "Observable", "Measured"],
 "data": [
  ["C[C@H]1Oc2cc(cnc2N)-c2c(nn(C)c2C#N)CN(C)C(=O)c2ccc(F)cc21 [Lorlatinib]", "concentration at 0.5 h", 5490]
]}

###

Assay: Tissue distribution of lorlatinib in mice after oral administration (LC-MS/MS)
Format: in vivo, Kun Ming mice
Settings: Kun Ming, mouse, 10 mg/kg, 0.5 h, brain, read-out: concentration in brain
Observable: concentration at 0.5 h (ng/g)

{"columns": ["Smiles Entry", "Unit Annotation", "Measured"],
 "data": [
  ["C[C@H]1Oc2cc(cnc2N)-c2c(nn(C)c2C#N)CN(C)C(=O)c2ccc(F)cc21", "ng/g", 1850]
]}

###

Assay: Tissue distribution of lorlatinib in mice after oral administration (LC-MS/MS)
Type: in vivo, Kun Ming mice
Details: Kun Ming, mouse, 10 mg/kg, 0.5 h, large intestine, read-out: concentration in large intestine
Procedure: All the animal-related experiments were performed in accordance with guidelines of Institutional Experimental Animal Ethical Committee. Kun Ming mice (18–20 g) were obtained from the Beijing HFK Bioscience Co., Ltd. (Beijing, China). All mice were given free access to normal diet and water during the experiment with an exception that mice were fasted for 12 h prior to drug administration. […]

{"columns": ["Smiles Entry", "Unit Annotation", "concentration at 0.5 h"],
 "data": [
  ["C[C@H]1Oc2cc(cnc2N)-c2c(nn(C)c2C#N)CN(C)C(=O)c2ccc(F)cc21", "ng/g", 2900]
]}

###

Assay: Tissue distribution of lorlatinib in mice after oral administration (LC-MS/MS)
Format: in vivo, Kun Ming mice
Conditions: Kun Ming, mouse, 10 mg/kg, 0.5 h, liver, read-out: concentration in liver

{"columns": ["Molecule", "concentration at 0.5 h (ng/g)"],
 "data": [
  ["C[C@H]1Oc2cc(cnc2N)-c2c(nn(C)c2C#N)CN(C)C(=O)c2ccc(F)cc21 [Lorlatinib]", 31500]
]}
